assaySystem: EPHB2 (UniProt P29323)
Sequence (P29323 whole entry, looked up): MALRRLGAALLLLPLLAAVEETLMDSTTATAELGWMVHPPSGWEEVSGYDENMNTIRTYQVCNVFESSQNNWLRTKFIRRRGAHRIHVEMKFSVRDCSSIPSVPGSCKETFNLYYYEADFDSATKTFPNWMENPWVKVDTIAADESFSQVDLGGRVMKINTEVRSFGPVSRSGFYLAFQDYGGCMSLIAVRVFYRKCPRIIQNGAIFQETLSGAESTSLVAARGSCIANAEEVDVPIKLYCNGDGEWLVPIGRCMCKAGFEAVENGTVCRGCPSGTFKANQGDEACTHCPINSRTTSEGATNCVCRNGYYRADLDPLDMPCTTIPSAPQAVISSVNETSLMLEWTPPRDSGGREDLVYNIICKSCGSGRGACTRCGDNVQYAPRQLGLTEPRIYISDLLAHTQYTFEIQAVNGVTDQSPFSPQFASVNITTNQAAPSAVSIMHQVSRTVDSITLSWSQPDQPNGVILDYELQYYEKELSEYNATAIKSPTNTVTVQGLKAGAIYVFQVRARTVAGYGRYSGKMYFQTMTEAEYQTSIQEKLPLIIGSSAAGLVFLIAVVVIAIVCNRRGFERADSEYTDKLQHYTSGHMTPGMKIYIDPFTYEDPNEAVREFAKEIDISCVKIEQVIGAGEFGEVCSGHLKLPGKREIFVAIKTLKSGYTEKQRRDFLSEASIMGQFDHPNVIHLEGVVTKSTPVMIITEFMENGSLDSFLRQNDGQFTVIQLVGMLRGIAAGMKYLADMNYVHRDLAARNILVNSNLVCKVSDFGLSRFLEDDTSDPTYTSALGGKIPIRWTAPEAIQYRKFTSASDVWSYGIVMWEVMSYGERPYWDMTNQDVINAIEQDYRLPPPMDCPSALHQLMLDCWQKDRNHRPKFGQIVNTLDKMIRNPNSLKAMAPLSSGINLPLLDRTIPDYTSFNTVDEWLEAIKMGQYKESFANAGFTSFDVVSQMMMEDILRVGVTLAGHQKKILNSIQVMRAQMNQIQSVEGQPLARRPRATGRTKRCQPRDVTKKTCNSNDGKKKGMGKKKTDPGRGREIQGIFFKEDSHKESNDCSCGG
assayOverview: phosphorylation enrichment, bacterial display (enrichment ratio); higher = better substrate or ligand; peptides without Tyr show the background;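 also: 11-residue human phosphosite peptides and single-mutation variants displayed on the E. coli surface, counted by deep sequencing, each peptide's frequency after selection divided by its frequency in the unselected input library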;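 also: frequency after pTyr selection over input frequency; kinase dosed for 20-30% of maximal phosphorylation in three min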
Decision: phosphorylation enrichment compared against 1; not below it gives Yes, below it gives No.

Below, 4 sequences whose answers are already recorded.
[
  {
    "sequenceCode": "SSYDIYHLSRE [KIR3DL2_Y253]",
    "assaySystem": "EPHB2 (UniProt P29323)",
    "class": "Yes"
  },
  {
    "sequenceCode": "VSKGGYFSVNL [C3orf33_Y164]",
    "assaySystem": "EPHB2 (UniProt P29323)",
    "class": "No"
  },
  {
    "sequenceCode": "HCHEGYVLHGA [SVEP1_Y2921_I2922V]",
    "assaySystem": "EPHB2 (UniProt P29323)",
    "class": "No"
  },
  {
    "sequenceCode": "TDEFEYDELIV [TGM1_Y136_YF]",
    "assaySystem": "EPHB2 (UniProt P29323)",
    "class": "Yes"
  }
]

Ask: For this sequence, is measured phosphorylation enrichment 1 or higher? FSAPNCCYRCG [PPP2CA_Y265_Y265C]
Reply: No

Ask: For this sequence, is measured phosphorylation enrichment 1 or higher? LEGKEYRMSGE [KRT3_Y511_E509K]
Reply: No

Ask: For this sequence, is measured phosphorylation enrichment 1 or higher? KLIETYFSKNY [PLP1_Y50]
Reply: No

----------
phosphorylation enrichment values by entry
assaySystem: EPHB1 (UniProt P54762)
Sequence (P54762 whole entry, looked up): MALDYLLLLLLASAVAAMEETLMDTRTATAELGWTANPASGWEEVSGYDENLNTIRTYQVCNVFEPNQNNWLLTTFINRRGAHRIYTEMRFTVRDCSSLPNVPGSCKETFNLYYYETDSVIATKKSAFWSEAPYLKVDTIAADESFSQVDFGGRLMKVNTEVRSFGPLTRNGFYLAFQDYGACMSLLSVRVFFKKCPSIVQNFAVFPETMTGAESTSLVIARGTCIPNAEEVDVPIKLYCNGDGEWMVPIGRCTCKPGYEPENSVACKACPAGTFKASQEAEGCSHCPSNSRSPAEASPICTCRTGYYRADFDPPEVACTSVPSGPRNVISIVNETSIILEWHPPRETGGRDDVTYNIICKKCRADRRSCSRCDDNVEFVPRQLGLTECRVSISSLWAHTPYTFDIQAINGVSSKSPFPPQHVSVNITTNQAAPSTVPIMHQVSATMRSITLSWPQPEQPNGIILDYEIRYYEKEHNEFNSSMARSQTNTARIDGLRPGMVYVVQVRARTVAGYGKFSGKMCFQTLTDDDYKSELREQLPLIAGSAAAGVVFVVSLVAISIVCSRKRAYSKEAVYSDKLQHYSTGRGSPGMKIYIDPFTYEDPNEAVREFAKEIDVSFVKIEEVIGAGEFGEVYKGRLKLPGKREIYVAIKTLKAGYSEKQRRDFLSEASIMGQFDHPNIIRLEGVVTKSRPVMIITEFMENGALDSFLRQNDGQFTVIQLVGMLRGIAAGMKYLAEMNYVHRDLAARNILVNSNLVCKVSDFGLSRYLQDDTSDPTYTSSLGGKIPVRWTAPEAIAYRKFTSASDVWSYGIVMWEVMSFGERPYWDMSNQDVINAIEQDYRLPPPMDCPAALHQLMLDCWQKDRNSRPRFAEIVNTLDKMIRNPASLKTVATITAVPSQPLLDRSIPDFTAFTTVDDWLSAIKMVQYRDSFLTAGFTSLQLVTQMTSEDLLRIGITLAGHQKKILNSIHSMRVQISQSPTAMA
assayOverview: phosphorylation enrichment, bacterial display (enrichment ratio); higher = better substrate or ligand; peptides without Tyr show the background
Just the number.

[
  {
    "sequenceCode": "EYYENYIEELK [PARP4_Y218_F215Y]",
    "phosphorylation enrichment": 1.09
  },
  {
    "sequenceCode": "PSFSEYASVQV [SIRPA_Y496]",
    "phosphorylation enrichment": 6.25
  },
  {
    "sequenceCode": "SKGFAYVHFDS [PABPC5_Y149_YF]",
    "phosphorylation enrichment": 0.477
  },
  {
    "sequenceCode": "PFFASYPPSPD [GDAP2_Y491_T489A_YF]",
    "phosphorylation enrichment": 0.99
  }
]

Notebook: HSHTRYERNIE [F2_Y434_R431H] , phosphorylation enrichment read as 0.67

Notebook: IKRIDYEFVEM [ADA_Y84_A83D] , phosphorylation enrichment read as 6.08

Notebook: PLQKIYNFNVL [SLC4A1_Y553_T552I_YF] , phosphorylation enrichment read as 0.743

Notebook: GMTLSYLFREL [NDUFS8_Y74_P79L] , phosphorylation enrichment read as 0.514

Notebook: SAAAIYTVRHP [PMP22_Y117] , phosphorylation enrichment read as 0.54

Notebook: GVRYIYTIDGS [DCX_Y105] , phosphorylation enrichment read as 0.6

Notebook: PFRKLYESVKK [MKI67_Y241_W238R] , phosphorylation enrichment read as 0.516

Notebook: KIITDYFVDMK [MPP4_Y566_V562I_YF] , phosphorylation enrichment read as 0.575

Notebook: FLTQHYDAKPQ [ANG_Y38] , phosphorylation enrichment read as 0.637

Notebook: LAAAGYDVEKN [H1-3_Y72] , phosphorylation enrichment read as 0.463

Notebook: DEWFLYKMRDI [CPS1_Y879_K875E] , phosphorylation enrichment read as 0.751

Notebook: TGQEEYSAMRD [KRAS_Y64_A59T] , phosphorylation enrichment read as 0.789

Notebook: GPSTPYTKSKC [SMARCC2_Y324_R329C] , phosphorylation enrichment read as 0.35

Notebook: AAQNCYKVTNG [TPI1_Y105] , phosphorylation enrichment read as 0.37

Notebook: FTRNFYVRAVL [CYBA_Y88_YF] , phosphorylation enrichment read as 0.831

Notebook: QMVGMYASFYM [AVPR2_Y124_S127F] , phosphorylation enrichment read as 2.49

Notebook: QGCSIYKDYYR [PLA2G2D_Y82] , phosphorylation enrichment read as 1.68

Notebook: SYSGEYGGGGG [ZG16_Y30] , phosphorylation enrichment read as 0.398

Notebook: VDGSLYKTHPQ [HK1_Y417] , phosphorylation enrichment read as 0.436

Notebook: PANMVYSTVEI [SLAMF7_Y304_T302M] , phosphorylation enrichment read as 3.27

Notebook: SGADSYEMEED [EGFR_Y316_C311S] , phosphorylation enrichment read as 0.574

Notebook: LHSEAYLKYNE [PBRM1_Y1610_I1614N] , phosphorylation enrichment read as 0.393

Notebook: LRWREYQRQDY [PRKRIP1_Y90_R87W] , phosphorylation enrichment read as 0.439

Notebook: IHETTYNSIKK [ACTA1_Y281_M285K] , phosphorylation enrichment read as 0.382

Notebook: TLKDVYDDGKF [RPS6KA3_Y483_YF] , phosphorylation enrichment read as 0.542

Notebook: SAASGYSDVTD [DTX2_Y425_T421A] , phosphorylation enrichment read as 0.646

----------
Test system: Fer (mouse)
assayOverview: phosphorylation enrichment, bacterial display (enrichment ratio); higher = better substrate or ligand; peptides without Tyr show the background
assayEndpoint: phosphorylation enrichment
Just the number.

[
  {
    "sequenceCode": "DNKALYDICFR [TUBB3_Y208_E205K]",
    "phosphorylation enrichment": 4.5
  },
  {
    "sequenceCode": "EQKKYSNAMKK [SCN5A_Y1495_Y1495S]",
    "phosphorylation enrichment": 0.247
  },
  {
    "sequenceCode": "ALWFIYSHTRS [ENG_Y614_YF]",
    "phosphorylation enrichment": 0.45
  }
]

Notebook: SIKDKYVTALF [KCNH2_Y611_YF] , phosphorylation enrichment read as 0.441

Notebook: EEQKKYFNAVK [SCN5A_Y1494_M1498V_YF] , phosphorylation enrichment read as 0.414

Notebook: YRGYSYDDIPD [TMEM230_Y112] , phosphorylation enrichment read as 0.439

Notebook: FSDPDYLAAVD [GLB1_Y154_S149F] , phosphorylation enrichment read as 0.475

Notebook: LFSINYLHFGD [KDM4C_Y201_E206D_YF] , phosphorylation enrichment read as 0.813

Notebook: LGSNGCKKLLK [SEPSECS_Y334_Y334C] , phosphorylation enrichment read as 0.472

Notebook: LDYNEYVRDLN [HPRT1_Y198_F199V] , phosphorylation enrichment read as 0.535

Notebook: LITTLYIGFLG [KCNQ1_Y267] , phosphorylation enrichment read as 0.929

Notebook: AGADGYGYLAP [FOXL2_Y186] , phosphorylation enrichment read as 0.26

Notebook: ESTPLYPMLFG [SCLY_Y280_F276S] , phosphorylation enrichment read as 0.507

Notebook: YEEDSYVERSQ [RET_Y905_K907E] , phosphorylation enrichment read as 0.572

Notebook: ETKENYGKTLK [CHL1_Y291] , phosphorylation enrichment read as 0.351

Notebook: MTKEQYIKMNQ [ARFGEF2_Y797_R802Q] , phosphorylation enrichment read as 0.399

Notebook: GPSTPYTKSKC [SMARCC2_Y324_R329C] , phosphorylation enrichment read as 0.393

Notebook: WCKPPYFSCAV [MMS22L_Y28] , phosphorylation enrichment read as 0.474

Notebook: YADGVYLALEE [DUOX2_Y70_Q71L] , phosphorylation enrichment read as 0.531

Notebook: RHTRSYDYTEG [FGF7_Y56_M59T] , phosphorylation enrichment read as 0.477

Notebook: AALRLYHVSDS [VIL1_Y256_K254R] , phosphorylation enrichment read as 0.531

Notebook: AHLTEYLSTHF [UQCRC1_Y219_D215H_YF] , phosphorylation enrichment read as 0.44

Notebook: HFECKYVINAI [MAOA_Y268_YF] , phosphorylation enrichment read as 0.502

Notebook: EVLKNYSQQKD [GOLGA4_Y1551_N1552S] , phosphorylation enrichment read as 0.417

Notebook: DTYDPYLDVAL [USP36_Y268] , phosphorylation enrichment read as 0.661

----------
System: c-Src
assayOverview: phosphorylation enrichment, bacterial display (enrichment ratio); higher = better substrate or ligand; peptides without Tyr show the background
param class (str): category from phosphorylation enrichment; see ranges zone 1 (below 0.4), zone 2 (0.4 to below 0.6), zone 3 (0.6 or more)

Below, 2 sequences whose answers are already recorded.
[
  {
    "sequenceCode": "DQLVKHGVNPG [TMPO_Y127_Y127H]",
    "class": "zone 1"
  },
  {
    "sequenceCode": "KELANYFKLHH [AK7_Y390_YF]",
    "class": "zone 2"
  }
]

Ask: Returns: class label. Input: FSLIHYAGIVV [MYH7_Y582_D587V]
Reply: zone 3

Ask: Returns: class label. Input: QRALLYEDTLY [UNC13D_Y56_A59T]
Reply: zone 3

Ask: Returns: class label. Input: YENGEYIIRQG [PRKG1_Y247]
Reply: zone 2

Ask: Returns: class label. Input: WRVISYHVVVW [ATP13A2_Y50_G49S]
Reply: zone 3

Ask: Returns: class label. Input: SLIDGYFRLTE [JAK2_Y372_A377E_YF]
Reply: zone 2

Ask: Returns: class label. Input: EGNERYEGYCV [GRIA3_Y451]
Reply: zone 2

Ask: Returns: class label. Input: DLDTDYGSGFP [RNASEH2A_Y206_YF]
Reply: zone 2

Ask: Returns: class label. Input: DGNIDYAEFAK [MCFD2_Y138_Y135N]
Reply: zone 3
